system: Daudi; experiment: Cytotoxicity against human Daudi cell line; format: cell-based
property_label: pIC50
Answers are plain numbers, as −log10 of the molar value.

# get_value(readout='pIC50', item= Clc1ccc(C(c2ccccc2)(c2ccc(CN3CCCC3)cc2)n2ccnc2)cc1 (racemic) ) 4.24

###

test system: Plasmodium falciparum; assay: Antiplasmodial activity against chloroquine-resistant Plasmodium falciparum K1; format: functional, organism-based
property_label: IC50 (nM)
Numbers only, in nM.

{"compound": "Clc1ccc(C(c2ccccc2)(c2ccc(CN3CCCC3)cc2)N2CCCC2)cc1 (racemic)", "property_label": "IC50", "display_unit": "nM", "reading": 1990}

Kindly give each listed record's IC50.
1. Clc1ccc(C(Cn2ccnc2)(c2ccccc2)c2ccc(CN3CCCC3)cc2)cc1 (racemic)
2. Clc1ccccc1C(CNCN1CCCC1)n1ccnc1 (racemic)
3. Clc1cccc(C(c2ccc(CN3CCCC3)cc2)n2ccnc2)c1 (racemic)

1: 520; 2: 920; 3: 200

For every listed record, write down its IC50.
1. Clc1ccccc1C(c1ccc(CN2CCCC2)cc1)n1ccnc1 (racemic)
2. CCN(CC)Cc1ccc(C(c2ccccc2Cl)n2cncn2)cc1 (racemic)
3. COc1ccc(C(c2ccccc2)(c2ccc(CN3CCCC3)cc2)n2ccnc2)cc1 (racemic)
4. N#CC(c1ccccc1)(c1ccc(Cl)cc1)c1ccc(CN2CCCC2)cc1 (racemic)
5. Clc1cccc(C(c2ccccc2)(c2ccc(CN3CCCC3)cc2)n2ccnc2)c1 (racemic)

1: 110; 2: 790; 3: 5930; 4: 2640; 5: 23
